Attribution: patent US20130251703A1

- TEST_TARGET: human HER3 endogenously expressed on human cancer cells (SK-Br-3, BT-474, MCF7) (human, UniProt P21860 20-1342)
- ASSAY_NAME: cell-based or functional assay

- BINDER: "MOR12922 (antibody, human IgG1, lambda, V domains shown) VH: QVQLVQSGAEVKKPGASVKVSCKASGYTFTGYYMHWVRQAPGQGLEWMGVIDPYSGWTEYAQKFQGRVTMTRDTSISTAYMELSRLRSEDTAVYYCARGSFYTRDSYFDVWGQGTLVTVSS VL: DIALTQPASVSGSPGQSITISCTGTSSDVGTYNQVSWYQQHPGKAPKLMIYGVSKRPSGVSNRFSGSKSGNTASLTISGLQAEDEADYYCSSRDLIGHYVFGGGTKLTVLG"
  MCF7 proliferation IC50 [pM]: 467
